All figures here come from ChEMBL document CHEMBL1201862.

Tested on: DMS-114
Assay: NCI tumour cell line growth inhibition, 48 h
Active and inactive are the calls of the source. Rule as the data show it: active = GI50 up to about 1.1 µM and inactive = higher.
Answer with one of the outcomes T = active, F = inactive

Use the examples below as a reference point.
>>> labelvalue("CC(O)C(O)C(N)CC=O (configuration not stated)")
"F"
>>> labelvalue("C/C=C/C=C/C=C/C=C/C(=O)O")
"F"
>>> labelvalue("CCOC(=O)COc1ccc(OCC(=O)OCC)c2c1C(=O)CCCC2=O")
"F"
>>> labelvalue("CC(C)(C)c1cc([Si](C)(C)C)c(C#N)c([Si](C)(C)C)c1")
"F"
>>> labelvalue("Cc1c2ccnc(C(F)(F)F)c2cc2c1[nH]c1ccccc12")
"F"

Query :: Look up the recorded call for O=C(O)C1OC(Oc2cc(O)c3c(=O)cc(-c4ccc(O)cc4)oc3c2)C(O)C(O)C1O (configuration not stated) in this test.
Result :: F

Query :: Recorded call for CC(C)N(C(=O)C12CC3CC(CC(C3)C1)C2)C(C)C ?
Result :: F

Query :: // param item: NC1C=NNC1=O (configuration not stated) ; yields the recorded call
Result :: F

Query :: What did this assay record as the result for CN1CC[C@@H](c2c(O)cc(O)c3c(=O)cc(-c4ccccc4Cl)oc23)[C@@H](O)C1 ?
Result :: T

Query :: What is the recorded call for this compound in the test? O=C1c2c(nc3ccccc3c2-c2ccccc2)CN1Nc1ccccn1
Result :: F

Query :: I'd appreciate the recorded outcome for C#C[C@@H](CCCC)OC(=O)N[C@H](C)c1ccccc1 from this test.
Result :: F

Query :: Assay outcome for COc1cc(Nc2c3ccccc3nc3ccccc23)ccc1NS(C)(=O)=O : what was it?
Result :: F

* * *

Test system: NCI-H460
Assay: NCI tumour cell line growth inhibition, 48 h
Calls of active or inactive are those of the source. Rule as the data show it: active = GI50 up to about 1.1 µM and inactive = higher.
Readings of GI50 for the listed molecules

Some molecules with recorded GI50:
>>> observed("COc1cc(/C=C/C(=O)N[C@@H]2C(=O)N3[C@@H]2SC(C)(C)[C@@H]3C(=O)O)cc(OC)c1OC")
"> 100 µM (inactive)"
>>> observed("O=c1cc(-c2ccccc2)[nH]c2cc(Cl)cc(Cl)c12")
"59 µM (inactive)"
>>> observed("CN(Cc1ccccc1)C1(N(C)Cc2ccccc2)CC1")
"> 100 µM (inactive)"
>>> observed("O=c1[nH]nc(-c2ccccc2)n1-c1cccc([N+](=O)[O-])c1")
"> 100 µM (inactive)"
>>> observed("Fc1ccc(C2(CCCN3CCc4[nH]c5cc(F)ccc5c4C3)OCCO2)cc1")
"10.4 µM (inactive)"
>>> observed("O=C1CCCc2ccc3c(c21)CC1(Cc2cc4c(cc2C1)CCCC4)C3")
"22.8 µM (inactive)"
>>> observed("CC(=O)Nc1ccc(S(=O)(=O)N/N=C(\\C)CN2C(=O)c3ccccc3C2=O)cc1")
"> 100 µM (inactive)"
>>> observed("CC(=O)OCC12CN(C#N)C3C4COC(CC41)C1(C(=O)N(C)c4ccccc41)C32 (stereo unspecified)")
"31.3 µM (inactive)"
>>> observed("C=CCc1ccc(Oc2cc(CC=C)c3c(c2O)O[C@@H](CO)[C@H]3c2ccc(O)c(-c3cc(CC=C)ccc3O)c2)cc1")
"24 µM (inactive)"
>>> observed("O=C(NC(Cc1ccccc1)(Cc1ccc(O)cn1)C(=O)O)c1ccccc1 (stereo unspecified)")
"> 100 µM (inactive)"

Data point: COc1ccc(C(=O)CC(c2ccc(OC)c(OC)c2)c2c(O)oc3ccccc3c2=O)cc1OC (stereo unspecified) ; GI50 = > 100 µM (inactive)

Entry O=C1/C(=C/c2cccc(O)c2)COc2ccccc21 ; GI50 = 20.8 µM (inactive)

Form: molecule = C=C(C(=O)OC)[C@H]1CC/C(C)=C/CC[C@@](C)(O)C=CC[C@@]2(C)O[C@@H]2C1 ; GI50 = > 100 µM (inactive)

Lab book: GI50 of [N-]=[N+]=NC1=CC(=O)c2cccc3cccc1c23 noted as 31.1 µM (inactive)

response.value for COc1cc2ncnc(NS(=O)(=O)c3cc4ccccc4s3)c2cc1OC (field: GI50) = > 100 µM (inactive)

Record CC(=O)C1=NN(c2ccccc2)C2(S1)SC(c1ccccc1)(c1ccccc1)c1ccccc12 (stereo unspecified) . Reported GI50: 32.3 µM (inactive)

* * *

System: OVCAR-3
Assay: NCI tumour cell line growth inhibition, 48 h
Calls of active or inactive are those of the source. Cut-off read from the data, not from the text of the source: active = GI50 up to about 1.1 µM and inactive = higher.
Reply using exactly one outcome from class 1 for active, class 0 for inactive

>>> labelvalue("O=CC[C@H]1C(=O)C[C@@H]2CCC[C@@H]21")
"class 0"
>>> labelvalue("COc1cc(C(C#N)NNC(=O)Cc2ccccc2)cc(OC)c1OC (centres undefined)")
"class 0"
>>> labelvalue("CN(C)CC(/C(Cc1ccccc1)=N\\NC(=S)NN)c1ccccc1 (centres undefined)")
"class 0"
>>> labelvalue("N#CC1(C#N)NC(c2ccsc2)C(C#N)(C#N)NC1c1ccsc1 (centres undefined)")
"class 0"
>>> labelvalue("COc1c(O)ccc2c1CN1CCc3cc4c(cc3C1C2)OCO4 (centres undefined)")
"class 0"
>>> labelvalue("[N-]=[N+]=C(C(=O)C(=[N+]=[N-])C(=O)c1ccccc1)C(=O)c1ccccc1")
"class 0"
>>> labelvalue("Cc1cccc2c1CC(C1OC(=O)c3ccccc31)C2=O (centres undefined)")
"class 0"
>>> labelvalue("CC(O)C(O)C(N)CC=O (centres undefined)")
"class 0"

Query :: Please indicate how the test categorized CC(=O)O[C@H]1C(=O)[C@@]2(C)[C@H]([C@H](OC(=O)c3cccc([N+](=O)[O-])c3)[C@]3(O)C[C@H](OC(=O)[C@H](O)[C@@H](NC(=O)c4ccccc4)c4ccccc4)C(C)=C1C3(C)C)[C@]1(OC(C)=O)CO[C@@H]1C[C@@H]2O .
Result :: class 1

* * *

Each item that follows carries a reported GI50.
Tested on: RXF 393
Assay: NCI tumour cell line growth inhibition, 48 h
Activity calls are given as the source filed them. Cut-off read from the data, not from the text of the source: active = GI50 up to about 1.1 µM and inactive = higher.

>>> observed("Cc1nc(C(N)=S)sc1C(=O)CC(=O)C(=O)Nc1cccc(Cl)c1C")
"> 100 µM (inactive)"
>>> observed("CC(C)(C)OC(=O)N(CCCN)CCCCN")
"> 100 µM (inactive)"
>>> observed("Oc1nc2cc3nc(O)c(O)nc3cc2nc1O")
"> 100 µM (inactive)"

// recorded GI50 for Clc1ccc(OCc2nnc3n2N=C(c2ccccc2)CS3)c(Cl)c1 : 26.4 µM (inactive)

Record summary for CC(NC(=O)Cc1ccccc1)NC(=O)C(C)C(=O)Nc1ccccc1 (stereo unspecified) : reported GI50 = 47.1 µM (inactive)

compound CC1(C)CCCC2(C)[C@@H]1CC[C@]13C[C@](C)(CC[C@@H]21)[C@@H]3CO (stereo partly specified) , GI50 observed: 98.9 µM (inactive)

* * *

System: UO-31
Assay: NCI tumour cell line growth inhibition, 48 h
Active and inactive are the calls of the source. Cut-off read from the data, not from the text of the source: active = GI50 up to about 1.1 µM and inactive = higher.
propertyName: GI50

>>> observed("CNc1nc(SC)nc2c1c(N)nn2C")
"> 100 µM (inactive)"

Given item O=c1cc(NNc2cccc3ccccc23)[nH]c(=O)[nH]1 , the value recorded as its GI50 is 16.3 µM (inactive)

In plain terms, O=Cc1[nH]c(=O)[nH]c(=O)c1C(=O)O has a documented GI50 of > 100 µM (inactive)

Reported GI50 ( COc1cc2c(cc1OC)C13CC[N+]4(C)CC5=CCOC6CC(=O)N2C1C6C5CC34[O-] (stereo unspecified) ) = > 100 µM (inactive)

* * *

Tested on: Malme-3M
Test: NCI tumour cell line growth inhibition, 48 h
Active and inactive are the calls of the source. No stated cut-off is given here; in the data, active = GI50 up to about 1.1 µM and inactive = higher.
Outcomes you can answer with include only these: t for active, f for inactive

As a guide, the following entries are already answered.
>>> labelvalue("O=S1(=O)CS(=O)(=O)OCCCO1")
"f"
>>> labelvalue("C/C(=N\\NC(=S)N1CC2CCC(CC2)C1)c1nccs1")
"t"
>>> labelvalue("CC(C)(C)CI")
"f"
>>> labelvalue("O=C1c2cccnc2S(=O)(=O)N1c1ccc(Oc2ccccc2)cc1")
"f"
>>> labelvalue("COC(=O)c1c(O)ccc2c1c1c(n2-c2ccc(OC)cc2)C(=O)c2ccccc2C1=O")
"f"

Query :: Outcome logged for N#CC1=C(N)OC2=C(CCCc3ccc([N+](=O)[O-])cc32)C1c1ccccc1 (stereo not drawn) in this assay:
Result :: f

Query :: For O=c1[nH]nc(-c2ccccc2)n1-c1cccc([N+](=O)[O-])c1 , which call appears in the assay record?
Result :: f

Query :: Hey, what did the test say about CNC1Cc2c[nH]c3cccc(c23)C12C=C(C)C(=O)O2 (stereo not drawn) ?
Result :: f

Query :: Tell me the assay call for COC(=O)[C@@H]1C[C@H]([Se]c2ccccc2)CN1C(=O)OCc1ccccc1 please.
Result :: f

Query :: Tell me the recorded outcome of this test for CCCCCCCCCCCCCC(=O)NCO .
Result :: f

Query :: Call for entry COC(=O)C(Cc1ccccc1I)C1=CCC2(CC1)OCCO2 (stereo not drawn) :
Result :: f

Query :: Please state the recorded outcome for this compound: Cc1cc(N2CCCCC2)nc2ccc(Cc3ccc4nc(N5CCCCC5)cc(C)c4c3)cc12
Result :: f

Query :: Please let me know the test result on file for COc1cc(Nc2nc3cc(C(F)(F)F)ccc3n3cccc23)cc(OC)c1OC .
Result :: f
